System: HepG2
Test: Anticancer activity against human HepG2 cells assessed as cell viability after 48 hrs by MTT microcultured tetrazolium assay
Type: functional, cell-based
Settings: HepG2, 48 h
Measured IC50 of individual entries
Kindly answer with a numeric value in µM, unit omitted.

Please review the following examples before continuing.
Lookup: IC50 / HepG2 / COc1ccc2c(c1)CCC1=C2N=c2s/c(=C\c3c(C)[nH]c4ccccc34)c(=O)n2C1c1cccc([N+](=O)[O-])c1 (stereo unspecified)
94.5

Also O=c1/c(=C/c2c[nH]c3ccc(Br)cc23)sc2n1C(c1ccc(Cl)cc1)C1=C(N=2)c2ccccc2CC1 (stereo unspecified) , if possible.
13.7

Also COc1ccc2[nH]cc(/C=c3\sc4n(c3=O)C(c3ccc(Cl)cc3)C3=C(N=4)c4ccccc4CC3)c2c1 (stereo unspecified) , if possible.
27.7

Also COc1ccc(C2C3=C(N=c4s/c(=C\c5c[nH]c6ccc(Br)cc56)c(=O)n42)c2ccc(OC)cc2CC3)cc1 (stereo unspecified) , if possible.
8.6

Also COc1ccc2c(c1)CCC1=C2N=c2s/c(=C\c3c[nH]c4ccccc34)c(=O)n2C1c1ccc(Cl)cc1 (stereo unspecified) , if possible.
34.9

Continue with the compound presented below.
Lookup: IC50 / HepG2 / COc1ccc2c(c1)CCC1=C2N=c2s/c(=C\c3c[nH]c4ccccc34)c(=O)n2C1c1cccc([N+](=O)[O-])c1 (stereo unspecified)
70.3

====

System: Candida albicans
Assay: Antifungal activity against Candida albicans MTCC 183 at 150 ug/ml after 48 hrs by agar well diffusion method
Type: functional
Details: MTCC 183, 48 h, read-out: IZ
Value type: zone of inhibition at 150 µg/mL

So what's the measured zone of inhibition at 150 µg/mL for this one? Cc1[nH]c2ccccc2c1/C=c1\sc2n(c1=O)C(c1ccc(Cl)cc1)C1=C(N=2)c2ccccc2CC1 (centres undefined)
16 mm

New cases:
So what's the measured zone of inhibition at 150 µg/mL for this one? COc1ccc(C2C3=C(N=c4s/c(=C\c5c[nH]c6ccc(Br)cc56)c(=O)n42)c2ccc(OC)cc2CC3)cc1 (centres undefined)
8 mm

Also O=c1/c(=C/c2c[nH]c3ccccc23)sc2n1C(c1cccc([N+](=O)[O-])c1)C1=C(N=2)c2ccccc2CC1 (centres undefined) , if possible.
8 mm

Also COc1ccc2c(c1)CCC1=C2N=c2s/c(=C\c3c(C)[nH]c4ccccc34)c(=O)n2C1c1ccc(Cl)cc1 (centres undefined) , if possible.
8 mm

====

Tested on: Candida albicans
Test: Antifungal activity against Candida albicans MTCC 183 at 150 ug/ml after 48 hrs by agar well diffusion method
Format: functional
Conditions: MTCC 183, 48 h, read-out: IZ
Measured zone of inhibition at 150 µg/mL of individual entries
Kindly answer with a numeric value in mm, unit omitted.

Please review the following examples before continuing.
So what's the measured zone of inhibition at 150 µg/mL for this one? COc1ccc2[nH]cc(/C=c3\sc4n(c3=O)C(c3ccc(Cl)cc3)C3=C(N=4)c4ccccc4CC3)c2c1 (stereo unspecified)
15

Also COc1ccc2c(c1)CCC1=C2N=c2s/c(=C\c3c[nH]c4ccccc34)c(=O)n2C1c1cccc([N+](=O)[O-])c1 (stereo unspecified) , if possible.
8

Also COc1ccc2c(c1)CCC1=C2N=c2s/c(=C\c3c[nH]c4ccc(Br)cc34)c(=O)n2C1c1ccc(Cl)cc1 (stereo unspecified) , if possible.
8

Also COc1ccc2c(c1)CCC1=C2N=c2s/c(=C\c3c[nH]c4ccccc34)c(=O)n2C1c1ccc(Cl)cc1 (stereo unspecified) , if possible.
8

Also COc1ccc2c(c1)CCC1=C2N=c2s/c(=C\c3c[nH]c4ccc(OC)cc34)c(=O)n2C1c1ccc(F)cc1 (stereo unspecified) , if possible.
8

New cases:
So what's the measured zone of inhibition at 150 µg/mL for this one? COc1ccc(C2C3=C(N=c4s/c(=C\c5c[nH]c6ccc(OC)cc56)c(=O)n42)c2ccc(OC)cc2CC3)cc1 (stereo unspecified)
8

Also COc1ccc2c(c1)CCC1=C2N=c2s/c(=C\c3c(C)[nH]c4ccccc34)c(=O)n2C1c1cccc([N+](=O)[O-])c1 (stereo unspecified) , if possible.
17

Also O=c1/c(=C/c2c[nH]c3ccc(Br)cc23)sc2n1C(c1ccc(Cl)cc1)C1=C(N=2)c2ccccc2CC1 (stereo unspecified) , if possible.
8

Also COc1ccc2c(c1)CCC1=C2N=c2s/c(=C\c3c[nH]c4ccc(C)cc34)c(=O)n2C1c1cccc([N+](=O)[O-])c1 (stereo unspecified) , if possible.
8

Also COc1ccc(C2C3=C(N=c4s/c(=C\c5c[nH]c6ccccc56)c(=O)n42)c2ccc(OC)cc2CC3)cc1 (stereo unspecified) , if possible.
18

Also COc1ccc2c(c1)CCC1=C2N=c2s/c(=C\c3c[nH]c4ccc(Br)cc34)c(=O)n2C1c1ccc(F)cc1 (stereo unspecified) , if possible.
8

Also COc1ccc2c(c1)CCC1=C2N=c2s/c(=C\c3c(C)[nH]c4ccccc34)c(=O)n2C1c1ccc(F)cc1 (stereo unspecified) , if possible.
8

Also COc1ccc(C2C3=C(N=c4s/c(=C\c5c(C)[nH]c6ccccc56)c(=O)n42)c2ccc(OC)cc2CC3)cc1 (stereo unspecified) , if possible.
8

Also COc1ccc2c(c1)CCC1=C2N=c2s/c(=C\c3c[nH]c4ccc(Br)cc34)c(=O)n2C1c1cccc([N+](=O)[O-])c1 (stereo unspecified) , if possible.
8

Also O=c1/c(=C/c2c[nH]c3ccccc23)sc2n1C(c1ccc(Cl)cc1)C1=C(N=2)c2ccccc2CC1 (stereo unspecified) , if possible.
8

Also COc1ccc2c(c1)CCC1=C2N=c2s/c(=C\c3c[nH]c4ccccc34)c(=O)n2C1c1ccc(F)cc1 (stereo unspecified) , if possible.
8
